System: U251 CNS
Experiment: NCI-60 one-dose screen, 48 h (100 = growth as untreated, 0 = no growth, -100 = all killed)
Conditions: 10 µM unless noted
Compounds without any hit were thinned out: in the full panel of roughly 83,000, 20% have a hit.

| COMPOUND | growth (%) |
| --- | --- |
| C=CCOC(=O)C(Br)CC (stereo unspecified) | 101 |
| CCCN1C(=O)NC(=O)C(CC)(N2C(=O)c3c(F)c(F)c(F)c(F)c3C2=O)C1=O (stereo unspecified) | -48 |
| Cc1nnc([S-])o1.[Au+].c1ccc([PH+](c2ccccc2)c2ccccc2)cc1 | 10.1 |
| O=C1CCCCC1CN1CCCCC1 (stereo unspecified) | 100 |
| CCOC(=O)c1ccccc1C(=O)OCC | 99.9 |
| Nc1cccnc1 | 103 |

----------
System: SK-OV-3 ovarian
Assay: NCI-60 one-dose screen, 48 h (100 = growth as untreated, 0 = no growth, -100 = all killed)
Conditions: 10 µM unless noted
About 83,000 compounds went through this panel and 20% of them were active in at least one assay; those are over-represented in the sample as a whole.
# growth values compiled below

| COMPOUND | growth, % |
| --- | --- |
| O=C(NC1=NCC[Se]1)c1ccccc1O | 135 |
| COC(=O)C12C3C4C1C1C2C3C41NC(=O)c1csc([C@@H](C[C@H](C(C)C)N(C)C(=O)[C@@H](NC(=O)[C@H]2CCCCN2C)C2CC2)OC(C)=O)n1 (stereo not given in full) | 7.71 |
| CCC1(NC(=O)c2cc(F)c(F)c(F)c2F)C(=O)NC(=O)N(C(C)C)C1=O (stereo not given) | 150 |
| COc1cc(-c2ccc(N)c(OC)c2)ccc1N | 105 |
| O=S(=O)(F)c1cccc(Cl)c1C[P+](c1ccccc1)(c1ccccc1)c1ccccc1 | 89.2 |

----------
System: NCI-H460 lung
Test: NCI-60 one-dose screen, 48 h
Settings: 10 µM unless noted
About 83,000 compounds went through this panel and 20% of them were active in at least one assay; those are over-represented in the sample as a whole. Calls of active or inactive are those of the source. Rule for the calls: active = growth percent below 10; inactive = the rest.
Classes used: TRUE for active, FALSE for inactive

| MOLECULE | TARGET | CLASS NAME |
| --- | --- | --- |
| N[C@@H](CCC(=O)CCl)C(=O)O | NCI-H460 lung | FALSE |
| O=S(OO)c1cc(Cl)c(O)c(Cl)c1 (stereo unspecified) | NCI-H460 lung | FALSE |
| COc1ccc(N)cc1N | NCI-H460 lung | FALSE |
| NC1CN2CCC1CC2 (stereo unspecified) | NCI-H460 lung | FALSE |
| NC(=O)Oc1cc(OC(N)=O)cc(N(CCCl)CCCl)c1 | NCI-H460 lung | FALSE |
| CCCC(C)SP(=S)(SC(C)CCC)SC(C)CCC (stereo unspecified) | NCI-H460 lung | FALSE |
| C[C@]12CCc3nc(-c4ccc(O)c(O)c4)sc3C1=CC[C@@H]1[C@@H]2CC[C@]2(C)C(=O)CC[C@@H]12 | NCI-H460 lung | FALSE |
| O=[N+]([O-])c1ccc(OCc2ccc(S(=O)(=O)F)c(Cl)c2)c(Cl)c1 | NCI-H460 lung | FALSE |
| Nc1c(Cl)c(Cl)nc(C(=O)O)c1Cl | NCI-H460 lung | FALSE |
| CCCCn1c(=O)c(C(=O)NCc2ccccc2Cl)c(O)c2ccccc21 | NCI-H460 lung | FALSE |
| CC[C@H](C)[C@H](NC(=O)c1cnccn1)C(=O)N(C)[C@H](C[C@@H](OC(C)=O)c1nc(C(=O)N[C@@H](Cc2ccccc2)C[C@H](C)C(=O)OC)cs1)C(C)C | NCI-H460 lung | TRUE |

----------
Test system: UO-31 renal
Assay: NCI-60 one-dose screen, 48 h (100 = growth as untreated, 0 = no growth, -100 = all killed)
Settings: 10 µM unless noted
Experimental: Growth inhibition of the UO-31 human tumor cell line is measured as a screen for anti-cancer activity. Cells are grown in 96 well plates and exposed to the test compound for 48 hours. Compounds are tested at a single concentration, which is 10^-5 M for most compounds. The reported endpoint is percent growth (GI% or GIPRCNT), where numbers from 0 - 100% represent growth inhibition, and numbers from -100% - 0 represent cell death. For example, a value of 40 represents 60% growth inhibition. […]
Compounds without any hit were thinned out: in the full panel of roughly 83,000, 20% have a hit.
Label 1 when growth is strictly below 90%; at or above that, label 0.

| COMPOUND | TARGET | CLASS NAME |
| --- | --- | --- |
| CCC(Br)(CC)C(=O)NC(N)=O | UO-31 renal | 0 |
| c1ccc2c(c1)sc1ccccc12 | UO-31 renal | 1 |
| CCCCn1c(=O)c(C(=O)NCc2ccccc2Cl)c(O)c2ccccc21 | UO-31 renal | 1 |
| O=[N+]([O-])c1ccc(OCc2ccc(S(=O)(=O)F)c(Cl)c2)c(Cl)c1 | UO-31 renal | 1 |
| O=C=Nc1ccc(Br)cc1 | UO-31 renal | 0 |
| C[C@]12CC[C@@H](OC(=O)N(CCCl)N=O)C[C@@H]1CC[C@@H]1[C@@H]2CC[C@]2(C)C(=O)CC[C@@H]12 | UO-31 renal | 1 |
| CC1(C)S[C@H]2CC[C@H]3OC(=O)[C@@H]1N23 | UO-31 renal | 1 |
| C[C@]12CCc3sc(Nc4ccc(O)cc4)nc3C1=CC[C@@H]1[C@@H]2CC[C@]2(C)C(=O)CC[C@@H]12 | UO-31 renal | 1 |
| C/C=C(/C)C(=O)O[C@H]1CC[C@@]2(C)[C@@H]3CC[C@H]4[C@]5(O)C[C@H](O)[C@@]6(O)[C@@H](CN7C[C@@H](C)CC[C@H]7[C@@]6(C)O)[C@]5(O)C[C@@]42O[C@@]13O | UO-31 renal | 1 |
| C[C@]12CCC3[C@@H](C[C@@H]4SC(Nc5ccccc5)=N[C@@]45CC(=O)CC[C@]35C)[C@@H]1CCC2=O (stereo partly drawn) | UO-31 renal | 1 |
| CC(C)CCC1C(=O)NC(=O)NC1=O | UO-31 renal | 1 |
| CC[C@@H](C)C(=O)O[C@H]1[C@H](O)[C@H]2[C@@H](CN3C[C@@H](C)CC[C@H]3[C@@]2(C)O)[C@@H]2C[C@]34O[C@]5(O)[C@@H](OC(=O)[C@@](C)(O)CC)CC[C@@]3(C)[C@@H]5[C@@H](OC(C)=O)[C@@H](OC(C)=O)[C@H]4[C@@]21O | UO-31 renal | 1 |
| N#Cc1ccc(Cl)cc1 | UO-31 renal | 0 |
| N#CC(N)c1ccccc1 (stereo not drawn) | UO-31 renal | 1 |
| COc1cc(/C=C\[N+](=O)[O-])ccc1OCc1ccccc1 | UO-31 renal | 1 |
| COC1C(O)CC(OC2CC(Oc3cc4cc5c(c(O)c4c(O)c3C)C(=O)[C@@H](OC3CC(OC4CC(OC6CC(C)(O)C(OC(C)=O)C(C)O6)C(O)C(C)O4)C(O)C(C)O3)[C@H]([C@H](OC)C(=O)[C@@H](O)[C@@H](C)O)C5)OC(C)C2OC(C)=O)OC1C (stereo partly drawn) | UO-31 renal | 1 |
| Oc1cc(Cl)ccc1Oc1ccc(Cl)cc1Cl | UO-31 renal | 1 |
| O=C(Cc1ccccc1)NC(O)C(Cl)(Cl)Cl (stereo not drawn) | UO-31 renal | 0 |
| C=C[Se]CC(=O)/C=C/c1ccccc1 | UO-31 renal | 1 |
| CCC1(NC(=O)c2cc(F)c(F)c(F)c2F)C(=O)NC(=O)N(C(C)C)C1=O (stereo not drawn) | UO-31 renal | 1 |
| CC[C@H](C)[C@H](NC(=O)[C@H]1CCCCN1C)C(=O)N(C)[C@H](C[C@@H](OC(C)=O)c1nc(C(=O)N[C@@H](Cc2ccccc2)C[C@H](C)C(=O)O)cs1)C(C)C | UO-31 renal | 1 |
| Cc1cc(N(CCCl)CCCl)ccc1C=Nc1ccc(-c2csc(-c3ccccc3)n2)cc1 | UO-31 renal | 1 |
| S=P(SP(=S)(c1ccccc1)c1ccccc1)(c1ccccc1)c1ccccc1 | UO-31 renal | 0 |
| COC(=O)C12C3C4C1C1C2C3C41NC(=O)c1csc([C@@H](C[C@H](C(C)C)N(C)C(=O)[C@@H](NC(=O)[C@H]2CCCCN2C)C2CC2)OC(C)=O)n1 (stereo partly drawn) | UO-31 renal | 1 |
| CC(=O)Nc1nc2c(s1)C1=CC[C@H]3[C@@H]4CC[C@H](OC(C)=O)[C@@]4(C)CC[C@@H]3[C@@]1(C)CC2 | UO-31 renal | 1 |
| Nc1nc(=S)nc(N)[nH]1 | UO-31 renal | 1 |
| CC1OC(=O)C(C(C)C)NC(=O)C(C(C)C)OC(=O)C(C(C)C)NC(=O)C(C)OC(=O)C(C(C)C)NC(=O)C(C(C)C)OC(=O)C(C(C)C)NC(=O)C(C)OC(=O)C(C(C)C)NC(=O)C(C(C)C)OC(=O)C(C(C)C)NC1=O (stereo not drawn) | UO-31 renal | 1 |
| ClC1OC(Cl)(Cl)C(Cl)(Cl)OC1(Cl)Cl (stereo not drawn) | UO-31 renal | 1 |
| Nc1cccnc1 | UO-31 renal | 0 |
| N#CC(C#N)=Cc1cccc(F)c1 | UO-31 renal | 0 |
| CC1(C)N=C(N)N=C(N)N1c1ccc(CCC(=O)Nc2ccc(S(=O)(=O)F)cc2)cc1 | UO-31 renal | 1 |
